- target or test system: Fibroblast growth factor 2 (Homo sapiens)
- assay name: 25% inhibition of FGF-2 binding to heparin-albumin by ELISA

{"compound": "O=C(NC1OC(C(=O)O)C(O)C(O)C1O)c1ccc(F)c(F)c1 (stereo unspecified)", "IC50 (µM)": 33}

====

- target or test system: Fibroblast growth factor 2 (Homo sapiens, UniProt P09038)
- Sequence (P09038 143-288 limits assumed): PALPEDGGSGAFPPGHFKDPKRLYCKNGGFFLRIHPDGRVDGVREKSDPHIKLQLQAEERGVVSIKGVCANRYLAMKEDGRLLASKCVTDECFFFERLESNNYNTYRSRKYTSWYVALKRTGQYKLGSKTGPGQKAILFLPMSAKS
- assay name: 24% inhibition of FGF-2 binding to heparin-albumin by ELISA

{"molecule": "O=C(COc1ccc(Cl)cc1Cl)NC1OC(C(=O)O)C(O)C(O)C1O (stereo unspecified)", "display unit": "nM", "IC50": 25.2}

====

- target or test system: Fibroblast growth factor 2 (Homo sapiens, UniProt P09038)
- assay name: Inhibition of Fibroblast growth factor 2 binding to heparin-albumin in ELISA
measurement kind: Imax (%)

{"compound": "O=C(NC1OC(C(=O)O)C(O)C(O)C1O)c1ccc(F)c(F)c1 (stereo unspecified)", "display unit": "%", "quantitative result": 39}
{"compound": "COc1cc(C(=O)NC2OC(C(=O)O)C(O)C(O)C2O)cc(OC)c1OC (stereo unspecified)", "display unit": "%", "quantitative result": 23}
{"compound": "O=C(NC1OC(C(=O)O)C(O)C(O)C1O)c1ccncc1 (stereo unspecified)", "display unit": "%", "quantitative result": 45}
{"compound": "O=C(COc1ccc(Cl)cc1Cl)NC1OC(C(=O)O)C(O)C(O)C1O (stereo unspecified)", "display unit": "%", "quantitative result": 24}
{"compound": "O=C(O)[C@@H]1O[C@@H](OCCN2C(=O)CCC2=O)[C@@H](O)[C@@H](O)[C@@H]1O", "display unit": "%", "quantitative result": 25}
{"compound": "O=C(NC1OC(C(=O)O)C(O)C(O)C1O)c1cccs1 (stereo unspecified)", "display unit": "%", "quantitative result": 40}
